Attribution: patent US5177069A

study.system: CCK-receptor (Rattus norvegicus, UniProt P30551)
Construct: Pancreatic plasma membranes were prepared by the method of Chang et al
Sequence (P30551 whole entry): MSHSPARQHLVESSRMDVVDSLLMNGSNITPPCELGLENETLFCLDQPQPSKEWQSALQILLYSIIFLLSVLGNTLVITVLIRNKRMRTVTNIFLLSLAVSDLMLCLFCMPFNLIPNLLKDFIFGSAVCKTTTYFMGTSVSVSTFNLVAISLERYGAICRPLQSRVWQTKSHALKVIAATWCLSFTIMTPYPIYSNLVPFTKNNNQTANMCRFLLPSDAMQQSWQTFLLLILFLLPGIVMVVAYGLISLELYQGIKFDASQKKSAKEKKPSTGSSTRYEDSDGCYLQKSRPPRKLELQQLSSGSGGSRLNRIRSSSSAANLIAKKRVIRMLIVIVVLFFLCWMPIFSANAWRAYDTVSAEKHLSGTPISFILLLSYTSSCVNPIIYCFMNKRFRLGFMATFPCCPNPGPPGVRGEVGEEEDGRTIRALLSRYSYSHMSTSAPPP
measurement.protocol: CCK-receptor binding assay in pancreas (125I-CCK-8, pancreatic plasma membranes)
recorded.conditions: 30 pM 125I-CCK-8, rat pancreatic plasma membranes, 37° C., 30 minutes; inhibition of specific binding
Could you please mark TRUE for values of IC50 below 300 nM and FALSE for values at or above it?

## Task # strict comparison: is reported IC50 < 300 nM? input = CCCCCN(CCCCC)C(=O)C(CCC(=O)O)CS(=O)(=O)c1ccc2ccccc2c1 (stereo not drawn)
## Result TRUE

## Task What do you have for CCCCCN(CC(=O)N1CCCCC1)C(=O)C(CCC(=O)O)CS(=O)(=O)c1ccc2ccccc2c1 (stereo not drawn) ?
## Result FALSE

## Task What do you have for CCCCCN(CC(=O)OC(C)(C)C)C(=O)C(CCC(=O)O)CS(=O)(=O)c1ccc2ccccc2c1 (stereo not drawn) [compound 25] ?
## Result TRUE

## Task What do you have for CCCCCN(CCCOC)C(=O)C(CCC(=O)O)CS(=O)(=O)c1ccc2ccccc2c1 (single isomer, unassigned) [compound 23] ?
## Result FALSE

## Task What do you have for CCCCCN(CC(=O)N(C)C)C(=O)C(CCC(=O)O)CS(=O)(=O)c1ccc2ccccc2c1 (stereo not drawn) ?
## Result FALSE

---
## Task # strict comparison: is reported IC50 < 300 nM? input = CCCCCN(CC(=O)NC1CCCCC1)C(=O)C(CCC(=O)O)CS(=O)(=O)c1ccc2ccccc2c1 (stereo not drawn)
## Result FALSE

## Task What do you have for CC(=O)OCCN(CCOC(C)=O)C(=O)C(CCC(=O)OCc1ccccc1)CS(=O)(=O)c1ccc2ccccc2c1 (stereo not drawn) ?
## Result FALSE

## Task What do you have for CCCCCN(CC(=O)N(CC)CC)C(=O)C(CCC(=O)O)CS(=O)(=O)c1ccc2ccccc2c1 (stereo not drawn) ?
## Result TRUE

## Task What do you have for CCCCCN(CC(=O)OCC)C(=O)C(CCC(=O)OCc1ccccc1)CS(=O)(=O)c1ccc2ccccc2c1 (racemic) ?
## Result FALSE

## Task What do you have for CCOC(=O)CN(CCCOC)C(=O)C(CCC(=O)OCc1ccccc1)CS(=O)(=O)c1ccc2ccccc2c1 (stereo not drawn) ?
## Result TRUE

## Task What do you have for CCCCCN(CC(=O)O)C(=O)C(CCC(=O)OC)CS(=O)(=O)c1ccc2ccccc2c1 (stereo not drawn) ?
## Result FALSE

## Task What do you have for CCCCCN(CCCOC)C(=O)C(CCC(=O)O)CS(=O)(=O)c1ccc2ccccc2c1 (single isomer, unassigned; (-)) [compound 22] ?
## Result TRUE

## Task What do you have for CCOC(=O)CN(CC(=O)OCC)C(=O)C(CCC(=O)O)CS(=O)(=O)c1ccc2ccccc2c1 (stereo not drawn) ?
## Result FALSE

## Task What do you have for CCCCCN(CC(=O)OC(C)(C)C)C(=O)C(CCC(=O)O)CS(=O)(=O)c1ccc2ccccc2c1 (single isomer, unassigned) [compound 26] ?
## Result TRUE

## Task What do you have for CCCCCN(CC(=O)OCC)C(=O)C(CCC(=O)O)CS(=O)(=O)c1ccc2ccccc2c1 (stereo not drawn) ?
## Result FALSE
